Molecular target: T1, HLA-A*02:01 (human)
T1 construct: Peptide-receptive HLA-A*02:01 monomer obtained by UV cleavage of a UV-sensitive ligand; captured on streptavidin plates; also called peptide-receptive MHC molecules; MHC class I
Experiment: UV-ligand exchange, anti-b2m ELISA; grade of peptide exchange yield (>10% = +; >20% = ++; >50 = +++; >75% = ++++)

{"binder": "YLWEAHTNI", "peptide exchange yield": "> 75%"}
{"binder": "IQDAEGAIHEV", "peptide exchange yield": "> 75%"}
{"binder": "ALPEPSPAA", "peptide exchange yield": "50 to 75%"}
{"binder": "AQLNIGNVLPV", "peptide exchange yield": "> 75%"}
